- assay-target: protein:farnesyl transferase (Oryctolagus cuniculus, UniProt G1SFC8+G1T7D9)
- Construct: immobilised CAAX peptide A and 3H-FPP as substrates
- protocol-details: Inhibition of protein:farnesyl transferase activity in rabbit reticulocyte lysate (pepAsep/pepBsep, 3H-FPP)
- measurement-setup: read-out: IC50 -value, 80 pmol peptide on Sepharose beads, 0.7 μM 3H-FPP, 30 min, 37° C., pepAsep minus pepBsep dpm
pIC50: −log10 of the molar value.

{"molecule": "CC(C)=CCCC(C)=CCCC(C)=CCP(=O)(O)OP(=O)(O)O [FPPA2, farnesyl phosphonophosphate]", "assay-target": "protein:farnesyl transferase (Oryctolagus cuniculus, UniProt G1SFC8+G1T7D9)", "pIC50": 6.54}
